# Experimental details: FP purification and fluorescence characterization in vitro (spectra, extinction coefficient, quantum yield)
# Format: physicochemical
# Measurement parameters: evolved APCα FPs, Table 4
Observation type: Emission Maximum (nm)

Molecule	Observation type	Unit label	Meas value
R8-9: evolved APCα FP, SEQ ID NO: 10, with BV (protein, biliverdin chromophore; smRUFP Variant Polypeptide) MKTCEQRVNIATLLSENKKKIVDKASQDLWRRRPDLIAPGGIAFSQRDRALCLRDYGWYLHLITFCLLAGDKGPIESIGLIGIREMYNSLGVPVPDMMESIRCLKEASLSLLDEEDAKETAPYFDYIIKAMS	Emission Maximum	nm	672
R5-2: evolved APCα FP, SEQ ID NO: 6, with BV (protein, biliverdin chromophore; smRUFP Variant Polypeptide) MKTCEQRVKIATLLSENEKKIVDKASQDLWRRRPDFIAPGGIAFSQRERALCLRDHRWYLHLITFCLLAGDKDPIESIGLIGIREMYNSLGVPVPGMMESIRCLKEASLSLLDEEDAKETAPYFDYIIKAMS	Emission Maximum	nm	696
R2-1 + PCB: evolved APCα FP, SEQ ID NO: 3, with PCB (protein, phycocyanobilin chromophore; smRUFP Variant Polypeptide) MKTGEQRVKIATLLSENEKKIVDKASQDLWRRRPDFIAPGGIAFGQRERALCLRDYGWYLRLITFCLLAGDKDPIESIGLIGVREMYNSLGVPVPGMVESIRCLKEASLSLLDEEDAKETAPYFDYIIQAMS	Emission Maximum	nm	648
R7-7: evolved APCα FP, SEQ ID NO: 8, with BV (protein, biliverdin chromophore; smRUFP Variant Polypeptide) MKTCEQRVKIATLLSENKKKIVDKASQDLWRRHPDLIAPGGIAFSQRERALCLRDYGWYLHLITFCLLAGDKGPIESIGLIGIREMYNSLGVPVPGMMESIRCLKEASLSLLDEEDAKETAPYFDYIIKAIS	Emission Maximum	nm	676
R6-6: evolved APCα FP, SEQ ID NO: 7, with BV (protein, biliverdin chromophore; smRUFP Variant Polypeptide) MKTCEQRVKIATLLSENEKKIVDKASQDLWRRRPDLIAPGGIAFSQRERALCLRDYGWYLHLITFCLLAGDKGPIESIGLIGIREMYNSLGVPVPGMMESIRCLKEASLSLLDEEDAKETAPYFDYIIKAMS	Emission Maximum	nm	676

Origin of measurements: patent US10501502B2
